Please respond with reported IC50 for every item in the list.
Tested on: A549
Assay: Cytotoxicity in human A549 cells assessed as inhibition of cell proliferation measured by CCK-8 assay
Format: functional, cell-based
Reply numerically in nM, unit not repeated.

// sample `COc1cc([C@@H]2c3cc4c(cc3[C@H](OC(=O)[C@@H]3CCCN3C(=O)OC(C)(C)C)[C@H]3COC(=O)[C@H]23)OCO4)cc(OC)c1OC` , its IC50 was 600

Note to self: IC50 recorded for `CCCCCCCCCCCC(=O)O[C@H]1c2cc3c(cc2[C@@H](c2cc(OC)c(OC)c(OC)c2)[C@H]2C(=O)OC[C@@H]21)OCO3` was 539

The recorded IC50 for `COc1cc([C@@H]2c3cc4c(cc3[C@H](OC(=O)CNC(=O)OC(C)(C)C)[C@H]3COC(=O)[C@H]23)OCO4)cc(OC)c1OC` is 9.54

Reported IC50 for `COc1cc([C@@H]2c3cc4c(cc3[C@H](OC(=O)c3ccc(Br)s3)[C@H]3COC(=O)[C@H]23)OCO4)cc(OC)c1OC` was 504

The measured IC50 associated with `COc1cc([C@@H]2c3cc4c(cc3[C@H](OC(=O)[C@@H](NC(=O)OC(C)(C)C)C(C)C)[C@H]3COC(=O)[C@H]23)OCO4)cc(OC)c1OC` reads 11200

Sure, the documented IC50 for `CC[C@H](C)[C@H](NC(=O)OC(C)(C)C)C(=O)O[C@H]1c2cc3c(cc2[C@@H](c2cc(OC)c(OC)c(OC)c2)[C@H]2C(=O)OC[C@@H]21)OCO3` is 7960

* * *

Please respond with reported pIC50 for every item in the list.
System: A549
Assay: Cytotoxicity in human A549 cells assessed as inhibition of cell proliferation measured by CCK-8 assay
Type: functional, cell-based
Field pIC50 (float): negative decimal logarithm of the concentration in molar.

Reported pIC50 for `CCCCCCCCCCCCCCCC(=O)O[C@H]1c2cc3c(cc2[C@@H](c2cc(OC)c(OC)c(OC)c2)[C@H]2C(=O)OC[C@@H]21)OCO3` was 5.34

`CCCCCCCCCCCCCCCCCC(=O)O[C@H]1c2cc3c(cc2[C@@H](c2cc(OC)c(OC)c(OC)c2)[C@H]2C(=O)OC[C@@H]21)OCO3` has a reported pIC50 of 5.14

// `COc1cc([C@@H]2c3cc4c(cc3[C@H](OC(=O)[C@H](CCSC)NC(=O)OC(C)(C)C)[C@H]3COC(=O)[C@H]23)OCO4)cc(OC)c1OC` : pIC50 value = 5.99

Consider `COc1cc([C@@H]2c3cc4c(cc3[C@H](OC(=O)[C@H](Cc3ccccc3)NC(=O)OC(C)(C)C)[C@H]3COC(=O)[C@H]23)OCO4)cc(OC)c1OC` . Its measured pIC50 is 7.63

So, `C/C=C/C=C/C(=O)O[C@H]1c2cc3c(cc2[C@@H](c2cc(OC)c(OC)c(OC)c2)[C@H]2C(=O)OC[C@@H]21)OCO3` ? Its pIC50 was 6.84

* * *

Tested on: HepG2
Assay: Cytotoxicity in human HepG2 cells assessed as inhibition of cell proliferation measured by CCK-8 assay
Assay type: functional, cell-based
Record form. Attribute: pIC50. Fill in for each entry.
Interpret pIC50 as the negative base-10 log of the concentration measured in mol/L.

Looking up `COc1cc([C@@H]2c3cc4c(cc3[C@H](OC(=O)[C@H](CCSC)NC(=O)OC(C)(C)C)[C@H]3COC(=O)[C@H]23)OCO4)cc(OC)c1OC` , I see its pIC50 listed as 4.29

Reported pIC50 ( `C/C=C/C(=O)O[C@H]1c2cc3c(cc2[C@@H](c2cc(OC)c(OC)c(OC)c2)[C@H]2C(=O)OC[C@@H]21)OCO3` ) = 3.96

Briefly, pIC50 measured for `COc1cc([C@@H]2c3cc4c(cc3[C@H](OC(=O)c3sccc3Cl)[C@H]3COC(=O)[C@H]23)OCO4)cc(OC)c1OC` : 3.83

The compound identified as `CCCCCCCCCCCCCCCCCC(=O)O[C@H]1c2cc3c(cc2[C@@H](c2cc(OC)c(OC)c(OC)c2)[C@H]2C(=O)OC[C@@H]21)OCO3` registered its pIC50 at 3.85

For this compound ( COc1cc([C@@H]2c3cc4c(cc3[C@H](OC(=O)c3ccncc3)[C@H]3COC(=O)[C@H]23)OCO4)cc(OC)c1OC [4-O-PODOPHYLLOTOXINYL-ISONICOTINATE] ), measured pIC50 is 3.73

So for `COc1cc([C@@H]2c3cc4c(cc3[C@H](OC(=O)CNC(=O)OC(C)(C)C)[C@H]3COC(=O)[C@H]23)OCO4)cc(OC)c1OC` , the logged pIC50 turned out to be 4.29

pIC50 measured on `CCCCCCCCCCCCCCCC(=O)O[C@H]1c2cc3c(cc2[C@@H](c2cc(OC)c(OC)c(OC)c2)[C@H]2C(=O)OC[C@@H]21)OCO3` = 3.93

What the record says about `CCCCCCCCCCCC(=O)O[C@H]1c2cc3c(cc2[C@@H](c2cc(OC)c(OC)c(OC)c2)[C@H]2C(=O)OC[C@@H]21)OCO3` : pIC50 is 4.27

Origin of measurements: ChEMBL document CHEMBL4811295
